Below, each entry is listed with its recorded inhibition at 0.01 µM.
biological target: PDGFRa (Homo sapiens, UniProt P16234); construct: purchased Promega; assay: ADP-Glo kinase inhibitory assay, PDGFRa; assay type: biochemical; conditions: read-out: % Inhibition at 10 nM, PDGFRa
Sequence (P16234 24-1089): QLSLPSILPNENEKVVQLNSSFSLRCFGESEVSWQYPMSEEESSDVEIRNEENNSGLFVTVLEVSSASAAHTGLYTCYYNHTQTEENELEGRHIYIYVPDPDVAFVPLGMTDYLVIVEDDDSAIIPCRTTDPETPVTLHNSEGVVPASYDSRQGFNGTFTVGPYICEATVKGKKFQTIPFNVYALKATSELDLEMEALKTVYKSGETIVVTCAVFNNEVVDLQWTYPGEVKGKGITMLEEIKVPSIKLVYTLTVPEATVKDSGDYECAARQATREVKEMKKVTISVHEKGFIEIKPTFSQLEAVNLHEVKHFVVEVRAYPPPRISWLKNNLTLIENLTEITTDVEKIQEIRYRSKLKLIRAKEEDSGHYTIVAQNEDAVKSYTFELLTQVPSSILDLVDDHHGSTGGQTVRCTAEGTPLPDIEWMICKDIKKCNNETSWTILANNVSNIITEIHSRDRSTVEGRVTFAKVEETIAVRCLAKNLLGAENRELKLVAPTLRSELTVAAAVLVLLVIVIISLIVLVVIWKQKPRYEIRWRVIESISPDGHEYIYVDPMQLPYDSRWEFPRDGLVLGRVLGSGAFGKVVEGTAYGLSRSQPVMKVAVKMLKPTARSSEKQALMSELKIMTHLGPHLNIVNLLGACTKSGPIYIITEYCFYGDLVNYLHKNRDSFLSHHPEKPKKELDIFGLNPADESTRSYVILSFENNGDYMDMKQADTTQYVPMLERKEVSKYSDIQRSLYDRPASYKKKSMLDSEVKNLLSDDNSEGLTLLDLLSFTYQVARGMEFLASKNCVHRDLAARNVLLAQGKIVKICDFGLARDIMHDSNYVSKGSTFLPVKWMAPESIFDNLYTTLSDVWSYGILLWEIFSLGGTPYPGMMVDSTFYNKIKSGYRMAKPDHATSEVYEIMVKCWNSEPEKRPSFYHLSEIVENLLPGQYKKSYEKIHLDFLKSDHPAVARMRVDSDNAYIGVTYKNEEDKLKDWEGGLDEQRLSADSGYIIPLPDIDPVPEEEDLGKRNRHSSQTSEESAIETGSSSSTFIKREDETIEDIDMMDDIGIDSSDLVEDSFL
Use % as the unit, but write only the number.

Some compounds with known inhibition at 0.01 µM results, for comparison:
[[record]]
compound = "COc1ccc(C(=O)N2CCN(Cc3ccc(C(=O)Nc4cc(-n5cnc(C)c5)cc(C(F)(F)F)c4)cc3)CC2)cc1 [Compound 28i]"
system_under_test = "PDGFRa (Homo sapiens, UniProt P16234)"
measure_unit = "%"
value_observed = 0

[[record]]
compound = "Cc1cn(-c2cc(NC(=O)c3ccc(CCl)cc3)cc(C(F)(F)F)c2)cn1 [Compound 5]"
system_under_test = "PDGFRa (Homo sapiens, UniProt P16234)"
measure_unit = "%"
value_observed = 0

[[record]]
compound = "O=C(Nc1cccc(C(F)(F)F)c1)c1ccc(CNc2nccc(-c3cccnc3)n2)cc1 [Compound 24]"
system_under_test = "PDGFRa (Homo sapiens, UniProt P16234)"
measure_unit = "%"
value_observed = 0

[[record]]
compound = "Cc1cn(-c2cc(NCc3ccc(C(=O)Nc4cc([N+](=O)[O-])ccc4C)cc3)cc(C(F)(F)F)c2)cn1 [Compound 15]"
system_under_test = "PDGFRa (Homo sapiens, UniProt P16234)"
measure_unit = "%"
value_observed = 0

[[record]]
compound = "Cc1ccc([N+](=O)[O-])cc1NCc1ccc(C(=O)Nc2cccc(C(F)(F)F)c2)cc1 [Compound 18]"
system_under_test = "PDGFRa (Homo sapiens, UniProt P16234)"
measure_unit = "%"
value_observed = 67


Record summary for CNC(=O)c1cc(Oc2ccc(NCc3ccc(C(=O)Nc4cc(-n5cnc(C)c5)cc(C(F)(F)F)c4)cc3)cc2)ccn1 [Compound 10] : reported inhibition at 0.01 µM = 66

Record summary for CCOC(=O)CC[C@H](NC(=O)c1ccc(CNc2nccc(-c3cccnc3)n2)cc1)C(=O)OCC [Compound 23] : reported inhibition at 0.01 µM = 0
